System: T1, gp130 on HepG2 B6 cells (UniProt P40189 23-918, limits assumed)
T1 sequence (looked up): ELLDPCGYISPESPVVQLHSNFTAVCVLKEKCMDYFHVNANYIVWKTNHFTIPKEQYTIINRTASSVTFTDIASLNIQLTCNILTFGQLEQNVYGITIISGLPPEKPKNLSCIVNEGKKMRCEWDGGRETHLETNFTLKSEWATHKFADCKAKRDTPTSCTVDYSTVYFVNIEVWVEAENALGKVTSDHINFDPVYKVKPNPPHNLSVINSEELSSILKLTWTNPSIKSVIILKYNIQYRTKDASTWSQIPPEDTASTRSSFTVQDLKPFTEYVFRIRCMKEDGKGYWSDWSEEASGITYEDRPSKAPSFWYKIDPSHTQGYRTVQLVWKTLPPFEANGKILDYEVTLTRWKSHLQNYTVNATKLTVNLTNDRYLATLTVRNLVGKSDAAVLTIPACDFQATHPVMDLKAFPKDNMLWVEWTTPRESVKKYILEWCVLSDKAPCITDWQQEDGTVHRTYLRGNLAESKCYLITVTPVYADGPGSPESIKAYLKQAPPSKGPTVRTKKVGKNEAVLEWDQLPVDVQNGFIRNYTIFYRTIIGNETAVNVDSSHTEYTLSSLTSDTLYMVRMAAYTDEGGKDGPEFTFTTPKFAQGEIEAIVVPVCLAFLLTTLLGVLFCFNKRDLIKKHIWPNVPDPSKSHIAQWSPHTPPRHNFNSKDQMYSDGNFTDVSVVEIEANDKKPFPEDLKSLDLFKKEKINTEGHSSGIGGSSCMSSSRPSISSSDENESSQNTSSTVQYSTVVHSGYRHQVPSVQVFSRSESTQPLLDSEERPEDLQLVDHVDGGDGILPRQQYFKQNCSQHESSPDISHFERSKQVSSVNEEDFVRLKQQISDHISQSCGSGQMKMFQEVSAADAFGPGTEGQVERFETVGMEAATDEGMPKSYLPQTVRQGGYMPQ
Assay method text: cell-based or functional assay
sPAP HepG2 B6 assay: Expt 1 % (EC50 as % of wild type EC50) strictly less than 70% = y. Otherwise n.

Determine whether this binder shows sPAP HepG2 B6 assay: Expt 1 % (EC50 as % of wild type EC50) lower than 70% (ties excluded): OSM-GST mutant R11A (ligand, not shown: a dimerising Fc or GST; large carriers; small tags and cut ends, Alanine mutant of m4; also called (5)R11A; 5 R11A) AAIGSCSKEYAVLLGQLQKQTDLMQDTSRLLDPYIRIQGLDVPKLREHCRERPGAFPSEETLRGLGRRGFLQTLNATLGCVLHRLADLEQRLPKAQDLERSGLNIEDLEKLQMARPNILGLRNNIYCMAQLLDNSDTAEPTKAGRGASQPPTPTPASDAFQRKLEGCRFLHGYHRFMHSVGRVFSKWGESPNRSRR n

Does the reported sPAP HepG2 B6 assay: Expt 1 % (EC50 as % of wild type EC50) of OSM-GST mutant Q130A (ligand, not shown: a dimerising Fc or GST; large carriers; small tags and cut ends, Alanine mutant of m4; also called (25)Y130A; 25 Q130A) AAIGSCSKEYRVLLGQLQKQTDLMQDTSRLLDPYIRIQGLDVPKLREHCRERPGAFPSEETLRGLGRRGFLQTLNATLGCVLHRLADLEQRLPKAQDLERSGLNIEDLEKLQMARPNILGLRNNIYCMAALLDNSDTAEPTKAGRGASQPPTPTPASDAFQRKLEGCRFLHGYHRFMHSVGRVFSKWGESPNRSRR stay below 70%? y

A record lists OSM-GST mutant Q25A (ligand, not shown: a dimerising Fc or GST; large carriers; small tags and cut ends, Alanine mutant of m4; also called (26)Q25A; 26 Q25A) AAIGSCSKEYRVLLGQLQKQTDLMADTSRLLDPYIRIQGLDVPKLREHCRERPGAFPSEETLRGLGRRGFLQTLNATLGCVLHRLADLEQRLPKAQDLERSGLNIEDLEKLQMARPNILGLRNNIYCMAQLLDNSDTAEPTKAGRGASQPPTPTPASDAFQRKLEGCRFLHGYHRFMHSVGRVFSKWGESPNRSRR . Is its sPAP HepG2 B6 assay: Expt 1 % (EC50 as % of wild type EC50) below 70%? y

Is sPAP HepG2 B6 assay: Expt 1 % (EC50 as % of wild type EC50) of OSM-GST mutant L119A (ligand, not shown: a dimerising Fc or GST; large carriers; small tags and cut ends, Alanine mutant of m4; also called (19)L119A; 19 L119A) AAIGSCSKEYRVLLGQLQKQTDLMQDTSRLLDPYIRIQGLDVPKLREHCRERPGAFPSEETLRGLGRRGFLQTLNATLGCVLHRLADLEQRLPKAQDLERSGLNIEDLEKLQMARPNIAGLRNNIYCMAQLLDNSDTAEPTKAGRGASQPPTPTPASDAFQRKLEGCRFLHGYHRFMHSVGRVFSKWGESPNRSRR strictly below 70%? n

Hi there! Is sPAP HepG2 B6 assay: Expt 1 % (EC50 as % of wild type EC50) for OSM-GST mutant Q18A (ligand, Alanine mutant of m4; also called (11)Q18A; 11 Q18A; not shown: Its linker is left out) AAIGSCSKEYRVLLGQLAKQTDLMQDTSRLLDPYIRIQGLDVPKLREHCRERPGAFPSEETLRGLGRRGFLQTLNATLGCVLHRLADLEQRLPKAQDLERSGLNIEDLEKLQMARPNILGLRNNIYCMAQLLDNSDTAEPTKAGRGASQPPTPTPASDAFQRKLEGCRFLHGYHRFMHSVGRVFSKWGESPNRSRR below 70%, do you know? n

Origin of measurements: patent US6706266
